Origin of the recorded values: PubChem BioAssay (NCI)

# Tested on: CCRF-CEM leukemia
# MEASUREMENT PROTOCOL: NCI-60 one-dose screen, 48 h
# STATED CONDITIONS: 10 µM unless noted
# Experimental: Growth inhibition of the CCRF-CEM human tumor cell line is measured as a screen for anti-cancer activity. Cells are grown in 96 well plates and exposed to the test compound for 48 hours. Compounds are tested at a single concentration, which is 10^-5 M for most compounds. The reported endpoint is percent growth (GI% or GIPRCNT), where numbers from 0 - 100% represent growth inhibition, and numbers from -100% - 0 represent cell death. For example, a value of 40 represents 60% growth inhibition. […]
This is part of a sample that, as a whole, favours compounds with a hit. Of some 83,000 tested, about 20% had one in any assay. Activity calls are given as the source filed them. The calls were made as follows: active = growth percent below 10; inactive = the rest.
Outcome codes: active, inactive

compound=COc1ncc2cc1NS(=O)(=O)c1cccc(c1)C(=O)NCC1=CC=C(S1)c1ncnc3c1SC2=C3C tested_system="CCRF-CEM leukemia" qualitative_label=active
compound=COc1cc2c(cc1O)[C@@]1(C)[C@H](c3ccccc3Br)OC(=O)N1CC2 tested_system="CCRF-CEM leukemia" qualitative_label=inactive
compound=COc1ccc(/C=C/C(=O)c2cc3c(N)c(C(=O)Nc4ccccc4C)sc3nc2C)cc1 tested_system="CCRF-CEM leukemia" qualitative_label=inactive
compound=c1ccc(CNc2ccc3nc(CCC4CCCCC4)[nH]c3c2)cc1 tested_system="CCRF-CEM leukemia" qualitative_label=inactive
compound="CC1(C)O[C@H]2OC3CCC(=O)CC3(O)[C@H]2O1 (stereo not given in full)" tested_system="CCRF-CEM leukemia" qualitative_label=inactive
compound="C=C(C)[C@@H]1CC[C@]2(CO)CC[C@]3(C)[C@H](CC[C@@H]4[C@@]5(C)CCC(NCCc6ccc(O)cc6)C(C)(C)[C@@H]5CC[C@]43C)[C@@H]12 (stereo not given in full)" tested_system="CCRF-CEM leukemia" qualitative_label=active
compound=Cc1cc2nc(-c3c(-c4ccc(F)cc4)nc4sccn34)[nH]c2cc1C tested_system="CCRF-CEM leukemia" qualitative_label=inactive
compound=COc1ccc(-c2oc(=O)ccc2-c2cc(OC)c(OC)c(OC)c2)cc1O tested_system="CCRF-CEM leukemia" qualitative_label=active
compound=Cc1ccc(N=Nc2c(N)nn(-c3ccccc3)c2N)cc1 tested_system="CCRF-CEM leukemia" qualitative_label=active
compound=Cc1ccc(-c2nc(C(Cl)Cl)nc3cc(C)nn23)cc1 tested_system="CCRF-CEM leukemia" qualitative_label=inactive
